Reference source for all entries: patent US6596726B1

Biological target: Human EGF receptor tyrosine kinase (Homo sapiens, UniProt P00533)
Construct: Human EGF receptor tyrosine kinase was isolated from A431 human epidermoid carcinoma cells which overexpress EGF receptor; endogenous in cells; host or cells: A431 human epidermoid carcinoma cells; purified on wheat germ agglutinin sepharose
Sequence (P00533 25-1210): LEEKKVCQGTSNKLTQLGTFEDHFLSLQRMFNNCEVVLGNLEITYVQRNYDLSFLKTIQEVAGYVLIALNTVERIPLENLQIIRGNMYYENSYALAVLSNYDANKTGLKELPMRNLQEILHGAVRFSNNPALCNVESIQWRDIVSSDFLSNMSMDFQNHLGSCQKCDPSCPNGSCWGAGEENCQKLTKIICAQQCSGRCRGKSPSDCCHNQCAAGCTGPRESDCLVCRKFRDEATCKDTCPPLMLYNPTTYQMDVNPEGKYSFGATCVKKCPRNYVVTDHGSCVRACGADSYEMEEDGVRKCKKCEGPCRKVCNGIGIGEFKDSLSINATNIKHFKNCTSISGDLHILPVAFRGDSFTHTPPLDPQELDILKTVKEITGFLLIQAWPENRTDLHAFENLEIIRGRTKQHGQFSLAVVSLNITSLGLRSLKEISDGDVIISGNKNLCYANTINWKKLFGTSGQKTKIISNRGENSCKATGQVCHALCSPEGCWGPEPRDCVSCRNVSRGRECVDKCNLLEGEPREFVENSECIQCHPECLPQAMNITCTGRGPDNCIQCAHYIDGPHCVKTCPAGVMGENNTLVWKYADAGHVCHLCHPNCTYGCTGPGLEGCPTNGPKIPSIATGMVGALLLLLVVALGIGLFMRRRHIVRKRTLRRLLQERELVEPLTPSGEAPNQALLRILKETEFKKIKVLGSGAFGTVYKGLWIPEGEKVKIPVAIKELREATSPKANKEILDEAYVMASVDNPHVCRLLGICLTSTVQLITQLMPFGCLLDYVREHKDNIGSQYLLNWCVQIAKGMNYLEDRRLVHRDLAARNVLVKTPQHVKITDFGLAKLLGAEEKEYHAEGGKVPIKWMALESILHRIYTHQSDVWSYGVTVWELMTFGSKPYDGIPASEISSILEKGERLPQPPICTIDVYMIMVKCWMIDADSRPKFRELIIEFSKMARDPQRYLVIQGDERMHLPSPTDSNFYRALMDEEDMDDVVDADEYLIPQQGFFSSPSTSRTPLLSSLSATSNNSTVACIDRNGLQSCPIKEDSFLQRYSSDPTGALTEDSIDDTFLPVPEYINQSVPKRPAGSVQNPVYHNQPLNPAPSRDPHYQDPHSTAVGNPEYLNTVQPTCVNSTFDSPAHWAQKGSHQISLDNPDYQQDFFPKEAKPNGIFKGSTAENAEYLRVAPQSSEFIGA
Test: EGF receptor tyrosine kinase inhibition (phosphorylation of PLC-gamma 1 derived peptide)
Format: biochemical
Conditions: read-out: EGFR IC50 nM
Counter-ions that a name gives are not always drawn.
Measurement Type: IC50

Ask: Look up and report IC50, with Human EGF receptor tyrosine kinase (Homo sapiens, UniProt P00533) as system, for Brc1cccc(Nc2ncnc3cc4ccccc4cc23)c1 [Example 1, hydrochloride]
Reply: < 0.1 nM
